Record form. Attribute: thermal shift delta Tm. Fill in for each entry.
# Tested on: LOC_OS05G07850-cb002
# TEST: thermal shift delta Tm vs DMSO control; higher = stronger stabilization (binding);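 note: purified Escherichia coli-expressed rice kinase domain construct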
# SETTINGS: 12.5 µM; protein concentration 2 µM
Give bare numbers, in °C.

CC(C)[C@H](CO)Nc1nc(Nc2cccc(Cl)c2)c2ncn(C(C)C)c2n1    4.54
Cc1cc(C)c(/C=C2\C(=O)Nc3ccccc32)[nH]1 [Semaxanib (SU5416)]    6.49
Cc1cc2c(F)c(Oc3ncnn4cc(OC[C@@H](C)OC(=O)[C@H](C)N)c(C)c34)ccc2[nH]1    2.83
C#Cc1cccc(Nc2ncnc3cc(OC)c(OCCCCCCC(=O)NO)cc23)c1    7.33
CC(C)(C)c1cc(NC(=O)Nc2ccc(Oc3ccnc4[nH]c(=O)cnc34)cc2F)n(-c2ccccc2)n1    12.5

Provide each entry's thermal shift delta Tm from the list below.
1. CC1(C)CNc2cc(NC(=O)c3cccnc3NCc3ccncc3)ccc21 [Motesanib Diphosphate (AMG-706)]
2. c1cc(-c2cnn3cc(-c4ccc(OCCN5CCCCC5)cc4)cnc23)ccn1 [Dorsomorphin 2HCl]
3. OCCn1cc(-c2cnc3nnn(Cc4ccc5ncccc5c4)c3n2)cn1

Return:
0.52
9.81
0.33

====

# System: LOC_OS02G07810-cb001
# TEST: thermal shift delta Tm vs DMSO control; higher = stronger stabilization (binding)
# SETTINGS: 12.5 µM; protein concentration 2 µM
Record form. Attribute: thermal shift delta Tm. Fill in for each entry.
Answers are plain numbers, in °C.

Examples from the recorded data:
O=C1NC(=O)/C(=C/c2ccc(-c3ccc(F)cc3O)o2)S1    2.79
NCC(=O)Nc1ccc(-n2nc(C(F)(F)F)cc2-c2ccc3c(ccc4ccccc43)c2)cc1    0.25
COc1nccnc1NS(=O)(=O)c1ccc(NC(=O)/C=C/c2ccc([N+](=O)[O-])s2)cc1 [Necrosulfonamide]    1.4
C=CC(=O)Nc1cccc(Oc2nc(Nc3ccc(N4CCN(C)CC4)cc3OC)ncc2Cl)c1    0.62
O=C(c1ccc(/C=C/c2n[nH]c3ccccc23)cc1)N1CCNCC1    0.73

Provide each entry's thermal shift delta Tm from the list below.
1. CN1CCN(C2CCN(C(=O)Nc3cc(Oc4ccc(NC(=O)C5(C(=O)Nc6ccc(F)cc6)CC5)c(F)c4)ccn3)CC2)CC1 [Golvatinib (E7050)]
2. N#Cc1ccc2ncnc(NCCc3ccccc3)c2c1
3. CCCS(=O)(=O)Nc1ccc(F)c(C(=O)c2c[nH]c3ncc(-c4ccc(Cl)cc4)cc23)c1F
4. CCc1nc(-c2cccc(C)c2)c(-c2ccnc(NC(=O)c3ccccc3)c2)s1
5. O=C(Nc1ccccc1C(=O)NC1CCCCNC1=O)c1cc2ccccc2s1 (stereo unspecified)

Return:
1: 0.4; 2: -0.71; 3: 2.03; 4: 0.98; 5: 0.51

====

Record form. Attribute: thermal shift delta Tm. Fill in for each entry.
# Test system: LOC_OS05G28520-cb001
# TEST: thermal shift delta Tm vs DMSO control; higher = stronger stabilization (binding)
# SETTINGS: 12.5 µM; protein concentration 2 µM
Where a name gives a salt, the structure may show the parent alone.
Give bare numbers, in °C.

Provide each entry's thermal shift delta Tm from the list below.
1. COC(=O)[C@]12CCC(C)(C)C[C@H]1[C@H]1C(=O)C=C3[C@@]4(C)C=C(C#N)C(=O)C(C)(C)[C@@H]4CC[C@@]3(C)[C@]1(C)CC2
2. C[C@H]1CNCCCN1S(=O)(=O)c1cccc2cncc(F)c12 [Ripasudil (K-115) hydrochloride dihydrate]
3. C=CC(=O)Nc1cccc(Oc2nc(Nc3ccc(N4CCN(C)CC4)cc3)nc3ccsc23)c1
4. CC(C)NC(=O)C1CCC(n2c(NC(=O)c3ccc(F)cc3)nc3ccc(CN4CCC(C(C)(C)O)CC4)cc32)CC1 (centres undefined)
5. Nc1ncnc2c1c(-c1cnc3[nH]ccc3c1)nn2C1CCCC1
6. CO[C@H]1C[C@@H]2CC[C@@H](C)[C@@](O)(O2)C(=O)C(=O)N2CCCC[C@H]2C(=O)O[C@H]([C@H](C)C[C@@H]2CC[C@@H](OC(=O)C(C)(CO)CO)[C@H](OC)C2)CC(=O)[C@H](C)/C=C(\C)[C@@H](O)[C@@H](OC)C(=O)[C@H](C)C[C@H](C)/C=C/C=C/C=C/1C

Return:
-4.77
0.51
2.64
4.12
0.54
0.46
